# ASSAY_EXPLANATION: yeast display, Sf9 membrane polyspecificity reagent, FACS + sequencing; frameworks hold sequencing errors
PARAMETER: polyreactivity (PSR sort gate)

Reference set (5 entries):
| SEQUENCE_RECORD | PARAMETER | RESULT |
| --- | --- | --- |
| QVQLVESGGGLVQAGGSLRLSCAASGFIRTYAMGWYRQAPGKERELVAAITSSGGRTYYADSVKGRFTISRDNAKNTVYLQMNSLKPEDTAVYYCAAGLGRYLRYNYWGQGTQVTVSS | polyreactivity (PSR sort gate) | high polyreactivity |
| QVQLVESGGGLVQAGGSLRLSCAASGRTFTSNAMGWYRQAPGKERELVAAITQSGGSTYYADSVKGRFTISRDNAKNTVYLQMNSLKPEDTAVYYCNAETTGRTEYNYWGQGTQVTVSS | polyreactivity (PSR sort gate) | low polyreactivity |
| QVQLVDSGGGLVQAGGSLRLSCAASGSIFYNYVMGWCRQAPGKEREMVAAISSGGGTNYADSVKGRFTISRDNAKYTVYLQMNSLKPEDTAVYYCAKASAYGLANDYDYWGQGTQVTVSS | polyreactivity (PSR sort gate) | low polyreactivity |
| QVQLVESGGGLVQAGGSLRLSCAASGLTFVYYAMGWYRQAPGKERELVAAISRSGGATYYADSVKGRFTISRDNAKNTVYLQMNSLKPEDTAVYYCAADATKWIGVVTMDYWGQGTQVTVAS | polyreactivity (PSR sort gate) | high polyreactivity |
| QVQLVESGGGLVQAGGSLRLSCAASGYIFPSYAMGWYRQAPGKERELVAAISESGGSTNYSDSVKGRFTISRDYAKNTVYLQLNSLKPEDTAVYYCAAGYYTVPPDMNSWGQGTQVTVSS | polyreactivity (PSR sort gate) | low polyreactivity |

Okay, next one:
Enquiry: So what's the measured polyreactivity (PSR sort gate) for this one? `QVQRVESGGALVQAGGSLRLSCAASGSTFYAYAMGWYRPAPGKERELVAAITYRDGRTYYADSVKGRFTISRDNAKNTVYLQMNRLKQEDTAVYYCARKTGFTVRRYDYWGHGTQVTVSS`
Return: high polyreactivity

Value source: the nanobody polyreactivity screen of Harvey et al. (2022)
